Catalogue of log10 MIC values
Tested on: Streptococcus equinus
Procedure Summary: Minimum inhibitory activity against Streptococcus bovis A-5169
Format: functional
On a log10 scale: recorded MIC, unit µg/mL.

CC[C@H]1OC(=O)[C@H](C)[C@@H](OC(=O)N2C(=O)OC[C@@H]2C)[C@H](C)[C@@H](OC2O[C@H](C)C[C@H](N(C)C3CCCCC3)[C@H]2O)[C@@](C)(OC)C[C@@H](C)C(=O)[C@H](C)[C@H]2N(CCc3ccc(Cl)c(Cl)c3)C(=O)O[C@]12C (some centres undefined) ... 0.79
CC[C@H]1OC(=O)[C@H](C)[C@@H](OC2C[C@@](C)(OC)[C@@H](O)[C@H](C)O2)[C@H](C)[C@@H](OC2O[C@H](C)C[C@H](N(CC3CC3)CC3CC3)[C@H]2O)[C@@](C)(OC)C[C@@H](C)C(=O)[C@H](C)[C@H]2N(CCc3ccc(F)c(Cl)c3)C(=O)O[C@]12C (some centres undefined) ... 1.40
CC[C@H]1OC(=O)[C@H](C)[C@@H](OC2C[C@@](C)(OC)[C@@H](O)[C@H](C)O2)[C@H](C)[C@@H](OC2O[C@H](C)C[C@H](N(C)C3CCCC3)[C@H]2O)[C@@](C)(OC)C[C@@H](C)C(=O)[C@H](C)[C@H]2N(CCc3ccc(Cl)cc3)C(=O)O[C@]12C (some centres undefined) ... -0.11
CC[C@H]1OC(=O)[C@H](C)[C@@H](OC2C[C@@](C)(OC)[C@@H](O)[C@H](C)O2)[C@H](C)[C@@H](OC2O[C@H](C)C[C@H](N(C)C(C)C)[C@H]2O)[C@@](C)(OC)C[C@@H](C)C(=O)[C@H](C)[C@H]2N(CCc3ccc(Cl)cc3)C(=O)O[C@]12C (some centres undefined) ... -0.70
CC[C@H]1OC(=O)[C@H](C)[C@@H](OC(=O)N2C(=O)OC[C@@H]2C)[C@H](C)[C@@H](OC2O[C@H](C)C[C@H](N(C)C(C)C)[C@H]2O)[C@@](C)(OC)C[C@@H](C)C(=O)[C@H](C)[C@H]2N(CCc3ccc(Cl)cc3)C(=O)O[C@]12C (some centres undefined) ... -1.00
CC[C@H]1OC(=O)[C@H](C)[C@@H](OC2C[C@@](C)(OC)[C@@H](O)[C@H](C)O2)[C@H](C)[C@@H](OC2O[C@H](C)C[C@H](NC)[C@H]2O)[C@@](C)(OC)C[C@@H](C)C(=O)[C@H](C)[C@H]2N(CCc3ccc(Cl)cc3)C(=O)O[C@]12C (some centres undefined) ... -0.70

INPUT: Given the compound CC[C@H]1OC(=O)[C@H](C)[C@@H](OC2C[C@@](C)(OC)[C@@H](O)[C@H](C)O2)[C@H](C)[C@@H](OC2O[C@H](C)C[C@H](N(C)C3CCCCC3)[C@H]2O)[C@@](C)(OC)C[C@@H](C)C(=O)[C@H](C)[C@H]2N(CCc3ccc(Cl)cc3)C(=O)O[C@]12C (some centres undefined) , what is its reported log10 MIC?
OUTPUT: 0.49

INPUT: Could you tell me which log10 MIC is on file for CC[C@H]1OC(=O)[C@H](C)[C@@H](OC(=O)N2C(=O)OC[C@@H]2C)[C@H](C)[C@@H](OC2O[C@H](C)C[C@H](N(C)CC3CC3)[C@H]2O)[C@@](C)(OC)C[C@@H](C)C(=O)[C@H](C)[C@H]2N(CCc3ccc(Cl)cc3)C(=O)O[C@]12C (some centres undefined) ?
OUTPUT: -0.11
